- assayTarget: Nucleic Acid
- assayExplanation: Binding activity at antiterminator RNA AM1A after 10 mins
- Format: nucleic-acid assay
endpointName: Kd (µM)
The answer is to be given in µM; state only the numeric part.

The cases that follow already have their Kd on record.
> print(dat)
                                        smi  val
1  COc1ccc(N2C(=O)O[C@H](COC(=O)Cc3ccccc3)[C@H]2Cc2ccccc2)cc1  3.4
2  CCCCCCC(=O)OC[C@H]1OC(=O)N[C@@H]1Cc1ccccc1   10

Could you now consider this next compound?
Report Kd for `O=C(Cc1ccccc1)OC[C@H]1OC(=O)N[C@@H]1Cc1ccccc1` tested on Nucleic Acid. 9

---

- Tested on: Nucleic Acid
- assayExplanation: Binding activity at antiterminator RNA AM1A(C11U) after 10 mins
- Type: nucleic-acid assay
I'd appreciate it if you marked entries 1.0 when Activity is lower than 0.8 and 0.0 when it is not.

> print(dat)
                                        smi  label
1  CCCCCCCC(=O)OC[C@H]1OC(=O)N(CCCC)[C@@H]1Cc1ccccc1    0.0

Given `CCCCCCCC(=O)OC[C@H]1OC(=O)N(c2ccccc2C(=O)OC)[C@@H]1Cc1ccccc1` , is recorded Activity strictly lower than 0.8? 0.0

Subsequent entry: `CCCCN1C(=O)O[C@H](COC(=O)Cc2ccccc2)[C@H]1Cc1ccccc1` 1.0

Subsequent entry: `COC(=O)c1ccccc1N1C(=O)O[C@H](COC(=O)Cc2ccccc2)[C@H]1CC1CCCCC1` 1.0

Subsequent entry: `CCCCCCCC(=O)OC[C@H]1OC(=O)N(c2ccccc2C(=O)OC)[C@@H]1CCCc1ccccc1` 1.0

Subsequent entry: `CCCCN1C(=O)O[C@H](COC(=O)C2CCCCC2)[C@H]1Cc1ccccc1` 1.0

---

- System: Nucleic Acid
- assayExplanation: Binding activity at antiterminator RNA AM1A relative to methyl 2-((4R,5S)-4-benzyl-2-oxo-5-((2-phenylacetoxy)methyl)oxazolidin-3-yl)benzoate after 10 mins
- Assay type: nucleic-acid assay
I'd appreciate it if you marked entries class 1 when Activity is lower than 0.6 and class 0 when it is not.

Example cases with answers are listed next.
> print(dat)
                                         smi    label
 1  COc1ccc(N2C(=O)O[C@H](COC(=O)C3CCCCC3)[C@H]2Cc2ccccc2)cc1  class 0
 2  CCCCN1C(=O)O[C@H](COC(=O)Cc2ccccc2)[C@H]1CCCc1ccccc1  class 0
 3  CCCCCCCC(=O)OC[C@H]1OC(=O)N(c2ccc(OC)cc2)[C@@H]1Cc1ccccc1  class 1
 4  CCCCCCCC(=O)OC[C@H]1OC(=O)N(c2ccccc2C(=O)OC)[C@@H]1CC1CCCCC1  class 1
 5  CCCCCCCC(=O)OC[C@H]1OC(=O)N(CCCC)[C@@H]1Cc1ccccc1  class 0
 6  CCCCCCCC(=O)OC[C@H]1OC(=O)N(CCCC)[C@@H]1CC1CCCCC1  class 0
 7  CCCCN1C(=O)O[C@H](COC(=O)C2CCCCC2)[C@H]1CCCc1ccccc1  class 0
 8  COC(=O)c1ccccc1N1C(=O)O[C@H](COC(=O)C2CCCCC2)[C@H]1Cc1ccccc1  class 0
 9  COc1ccc(N2C(=O)O[C@H](COC(=O)Cc3ccccc3)[C@H]2CCCc2ccccc2)cc1  class 0
10  COc1ccc(N2C(=O)O[C@H](COC(=O)Cc3ccccc3)[C@H]2Cc2ccccc2)cc1  class 0

Given `CCCCCCCC(=O)OC[C@H]1OC(=O)N(CCCC)[C@@H]1CCCc1ccccc1` , is recorded Activity strictly lower than 0.6? class 1

Subsequent entry: `COc1ccc(N2C(=O)O[C@H](COC(=O)C3CCCCC3)[C@H]2CCCc2ccccc2)cc1` class 0

Subsequent entry: `COC(=O)c1ccccc1N1C(=O)O[C@H](COC(=O)Cc2ccccc2)[C@H]1CCCc1ccccc1` class 0

Subsequent entry: `CCCCCCCC(=O)OC[C@H]1OC(=O)N(c2ccc(OC)cc2)[C@@H]1CC1CCCCC1` class 1

Subsequent entry: `COC(=O)c1ccccc1N1C(=O)O[C@H](COC(=O)Cc2ccccc2)[C@H]1CC1CCCCC1` class 1

---

Quick list: Activity per entry.
- System: Nucleic Acid
- assayExplanation: Binding activity at antiterminator RNA AM1A(C11U) after 10 mins
- Assay type: nucleic-acid assay
API note: the answer field is a bare number with no unit suffix.

The cases that follow already have their Activity on record.
> print(dat)
                                        smi   assaytarget   val
1  COc1ccc(N2C(=O)O[C@H](COC(=O)Cc3ccccc3)[C@H]2CC2CCCCC2)cc1  Nucleic Acid  1.05
2  CCCCCCCC(=O)OC[C@H]1OC(=O)N(CCCC)[C@@H]1CCCc1ccccc1  Nucleic Acid  0.69
3  CCCCN1C(=O)O[C@H](COC(=O)C2CCCCC2)[C@H]1CCCc1ccccc1  Nucleic Acid  0.78
4  CCCCN1C(=O)O[C@H](COC(=O)C2CCCCC2)[C@H]1CC1CCCCC1  Nucleic Acid   0.7
5  CCCCCCCC(=O)OC[C@H]1OC(=O)N(c2ccc(OC)cc2)[C@@H]1CCCc1ccccc1  Nucleic Acid  0.72

If you can, please state the reported Activity value of `COC(=O)c1ccccc1N1C(=O)O[C@H](COC(=O)Cc2ccccc2)[C@H]1Cc1ccccc1` . 1.47

Subsequent entry: `COC(=O)c1ccccc1N1C(=O)O[C@H](COC(=O)C2CCCCC2)[C@H]1CCCc1ccccc1` 0.78

Subsequent entry: `COc1ccc(N2C(=O)O[C@H](COC(=O)Cc3ccccc3)[C@H]2Cc2ccccc2)cc1` 0.23

Subsequent entry: `COC(=O)c1ccccc1N1C(=O)O[C@H](COC(=O)C2CCCCC2)[C@H]1Cc1ccccc1` 1.19

---

- Test system: Nucleic Acid
- assayExplanation: Binding activity at antiterminator RNA AM1A(C11U) after 10 mins
- Type: nucleic-acid assay
Quick list: Activity per entry.
API note: the answer field is a bare number with no unit suffix.

The cases that follow already have their Activity on record.
> print(dat)
                                        smi  endpointname   val
1  COc1ccc(N2C(=O)O[C@H](COC(=O)C3CCCCC3)[C@H]2CCCc2ccccc2)cc1      Activity   0.7
2  COc1ccc(N2C(=O)O[C@H](COC(=O)C3CCCCC3)[C@H]2CC2CCCCC2)cc1      Activity  0.82
3  CCCCN1C(=O)O[C@H](COC(=O)Cc2ccccc2)[C@H]1CCCc1ccccc1      Activity   0.7
4  CCCCCCCC(=O)OC[C@H]1OC(=O)N(c2ccc(OC)cc2)[C@@H]1Cc1ccccc1      Activity  0.68

If you can, please state the reported Activity value of `CCCCCCCC(=O)OC[C@H]1OC(=O)N(CCCC)[C@@H]1CC1CCCCC1` . 1.05

Subsequent entry: `CCCCCCCC(=O)OC[C@H]1OC(=O)N(c2ccc(OC)cc2)[C@@H]1CC1CCCCC1` 0.78

Subsequent entry: `COC(=O)c1ccccc1N1C(=O)O[C@H](COC(=O)Cc2ccccc2)[C@H]1CCCc1ccccc1` 1.12

Subsequent entry: `CCCCCCCC(=O)OC[C@H]1OC(=O)N(c2ccccc2C(=O)OC)[C@@H]1CC1CCCCC1` 0.97

Subsequent entry: `COc1ccc(N2C(=O)O[C@H](COC(=O)C3CCCCC3)[C@H]2Cc2ccccc2)cc1` 0.77

---

- Tested on: Nucleic Acid
- assayExplanation: Binding activity at antiterminator RNA AM1A relative to methyl 2-((4R,5S)-4-benzyl-2-oxo-5-((2-phenylacetoxy)methyl)oxazolidin-3-yl)benzoate after 10 mins
- Assay type: nucleic-acid assay
Decision: Activity compared against 0.6; not below it gives Satisfied, below it gives Not satisfied.

Example cases with answers are listed next.
> print(dat)
                                        smi   assaytarget          label
1  CCCCN1C(=O)O[C@H](COC(=O)Cc2ccccc2)[C@H]1Cc1ccccc1  Nucleic Acid  Not satisfied
2  CCCCCCCC(=O)OC[C@H]1OC(=O)N(c2ccccc2C(=O)OC)[C@@H]1Cc1ccccc1  Nucleic Acid      Satisfied
3  CCCCN1C(=O)O[C@H](COC(=O)Cc2ccccc2)[C@H]1CC1CCCCC1  Nucleic Acid  Not satisfied
4  COc1ccc(N2C(=O)O[C@H](COC(=O)Cc3ccccc3)[C@H]2CC2CCCCC2)cc1  Nucleic Acid      Satisfied

Quick check: does `COC(=O)c1ccccc1N1C(=O)O[C@H](COC(=O)C2CCCCC2)[C@H]1CCCc1ccccc1` have Activity greater than or equal to 0.6? Satisfied

Subsequent entry: `CCCCN1C(=O)O[C@H](COC(=O)C2CCCCC2)[C@H]1Cc1ccccc1` Not satisfied

Subsequent entry: `CCCCCCCC(=O)OC[C@H]1OC(=O)N(c2ccccc2C(=O)OC)[C@@H]1CCCc1ccccc1` Satisfied

Subsequent entry: `CCCCCCCC(=O)OC[C@H]1OC(=O)N(c2ccc(OC)cc2)[C@@H]1CCCc1ccccc1` Satisfied

Subsequent entry: `CCCCN1C(=O)O[C@H](COC(=O)C2CCCCC2)[C@H]1CC1CCCCC1` Not satisfied
